Cited source for all entries: PubChem BioAssay (NCI)

Test system: UACC-62 melanoma
protocol-details: NCI tumour cell line growth inhibition, 48 h
measured-attribute: TGI

Example cases with answers are listed next.
CCC(Oc1ccc(OC)c2c1C(=O)CCC2)C(=O)O (stereo not drawn); > 100 µM
COc1ccc(O[C@H](CO)C[C@@H]2COC(C)(C)O2)cc1; > 100 µM
O=C(N/N=C/c1ccccc1)c1c(F)c(F)c(F)c(F)c1F; > 100 µM
NC1=NC(c2ccccc2Cl)c2c(n[nH]c2N)N1 (stereo not drawn); > 100 µM
O=C(CCCCN1CCN(CCCCC(=O)Nc2ccccc2C#C/C=C\C#Cc2ccccc2C(F)(F)F)CC1)Nc1ccccc1C#C/C=C\C#Cc1ccccc1C(F)(F)F; 22.8 µM

# return recorded TGI for input Clc1[nH]nc2ccccc12
> 100 µM

State its TGI for this compound: O=C1OC(=O)c2c1nc1ccccc1c2-c1ccccc1
> 100 µM

Note TGI for the compound shown: CCOC(=O)C1=C(C)N(NC(N)=O)C2(N)N(NC(N)=O)C(C)=C(C(=O)OCC)C12C#N (stereo not drawn)
> 100 µM

Quick one: give measured TGI for COC(=O)CCC(C)[C@H]1CCC2C3CC[C@@H]4CC5(CC[C@]4(C)C3C[C@H](OC(C)=O)[C@@]21C)OOC1(CCCCC1)OO5 (stereo partly drawn)
> 100 µM

Answer with the recorded TGI of COc1cc2c(cc1O)C(Cc1ccc(OCc3ccccc3)c(OCc3ccccc3)c1)N(C(=O)NCCc1ccccc1)CC2 (stereo not drawn) only.
> 100 µM

Fill in reported TGI for this entry: C#COc1cccc(Nc2ncnc3cc(NC(=O)[C@@H](C)Cl)ccc23)c1
> 62.5 µM

Supply measured TGI of COc1cccc2c(=O)oc(-c3ccccc3C)nc12 in your reply.
> 100 µM

Item O=C1Nc2ccc(-c3cccnc3)cc2/C1=C/c1cc(Br)c(O)c(Br)c1 : provide TGI
9.87 µM

For Cc1cc(OC2OC(CO)C(O)C(O)C2O)ccc1O (stereo not drawn) , write its TGI.
> 100 µM

Report measured TGI; entry is CCOC(=O)C1C(c2ccc(Br)cc2)N(Cc2ccccc2)C(c2ccc(Br)cc2)C(C(=O)OC)S1(=O)=O (stereo not drawn)
> 100 µM

* * *

Tested on: TK-10 renal
protocol-details: NCI tumour cell line growth inhibition, 48 h
compounds and their reported TGI

Cc1ccc(S(=O)(=O)OCCN(CCOS(=O)(=O)c2ccc(C)cc2)c2ccc(C=O)cc2)cc1; > 100 µM
Cc1ccc(S(=O)(=O)Nc2ccccc2C(C)(C)C)cc1; > 100 µM
Cn1cc(-c2ccc3ncc(-c4ccc(CC(=O)Nc5cc(C(C)(C)C)nn5C)cc4)cc3c2)cn1; > 20 µM

Would you kindly look at the next entry?
Quote TGI reported for COc1ccc(/C=C/C(=O)c2c(-c3ccccc3)nn(C)c(=O)c2N2CCCCC2)cc1 please.
> 100 µM

* * *

System: OVCAR-4 ovarian
protocol-details: NCI tumour cell line growth inhibition, 48 h
measured-attribute: TGI

OCc1ccc(-c2ccc(-c3ccc(CO)o3)o2)o1; > 100 µM
N=C(N)n1cc(/C=N/N=C(N)N)cn1; > 100 µM
Nc1c(C(=O)Nc2ccccc2)sc2nc3c(cc12)C(=O)CCC3; > 100 µM
O=c1c2[nH]cnc2n(-c2ccccc2)c(=S)n1-c1ccccc1; > 100 µM
Cn1c2c(c3c(=O)[nH]ncc31)Cc1ccccc1-2; > 100 µM

Consider the compound Cc1ccc(-n2c3nc(=O)n(C)c(=O)c-3nc3ccccc32)c(C)c1 . State its measured TGI.
24.6 µM

Give a short answer stating reported TGI for CCc1ccc(Oc2c(-c3ccc(OCc4ccc(Cl)cc4)cc3O)nn(C)c2C(F)(F)F)cc1 .
2.33 µM

Please indicate TGI recorded for Cc1nc2ccncc2[nH]1
> 100 µM

Read off the recorded TGI for [C-]#[O+].[Cl][Sn]([Cl])[Cl].[Cl][Sn]([Cl])[Cl].[Pt].c1cnc2c(c1)ccc1cccnc12
> 27.4 µM

Output TGI of N#Cc1ccccc1Sc1ccccc1N
> 100 µM

Look up TGI of COc1ccc(-c2cnc(-c3ccncc3-c3cccc(OC)c3)o2)cc1 and report it.
29.2 µM
